- Substrate: [H][C@]12SCC(COC(C)=O)=C(C(=O)O)N1C(=O)[C@H]2NC(=O)CCC[C@@H](N)C(=O)O
- Procedure text: CPC consumption by HPLC, initial rates
- Format: biochemical, Trigonopsis variabilis
- Condition summary: 0.1 M potassium phosphate pH 8.0, 30 °C, air saturated
Property: kcat
Answer as a quantity: numeral, then unit.

Problem: Any idea what kcat was measured for TvDAAO (Trigonopsis variabilis; C108F/C298N/E32R/F33D/F54S/M156L) (protein, FAD-containing; no tag mentioned) MAKIVVIGAGVAGLTTALQLLRKGHEVTIVSRDTPGDLSIGYTSPWAGANWLTSYDGGKLADYDAVSYPILRELARSSPEAGIRLISQRSHVLKRDLPKLEVAMSAIFQRNPWFKNTVDSFEIIEDRSRIVHDDVAYLVEFRSVCIHTGVYLNWLLSQCLSLGATVVKRRVNHIKDANLLHSSGSRPDVIVNCSGLFARFLGGVEDKKMYPIRGQVVLVRNSLPFMASFSSTPEKENEDEALYIMTRFDGTSIIGGCFQPNNWSSEPDPSLTHRILSRALDRFPELTKDGPLDIVRENVGHRPGREGGPRVELEKIPGVGFVVHNYGAAGAGYQSSYGMADEAVSYVERALTRPNL ?
Solution: 121 s⁻¹

The measurements presented in this section are drawn from paper PMC6770189.
